biological target: Transcription intermediary factor 1-alpha (Homo sapiens); test: Inhibition of N-terminal His6-SUMO-1-tagged recombinant human TRIM24 bromodomain expressed in Escherichia coli BL21(DE3)-R3-pRARE2 cells by Alpha Screen assay
Sequence (O15164 whole entry): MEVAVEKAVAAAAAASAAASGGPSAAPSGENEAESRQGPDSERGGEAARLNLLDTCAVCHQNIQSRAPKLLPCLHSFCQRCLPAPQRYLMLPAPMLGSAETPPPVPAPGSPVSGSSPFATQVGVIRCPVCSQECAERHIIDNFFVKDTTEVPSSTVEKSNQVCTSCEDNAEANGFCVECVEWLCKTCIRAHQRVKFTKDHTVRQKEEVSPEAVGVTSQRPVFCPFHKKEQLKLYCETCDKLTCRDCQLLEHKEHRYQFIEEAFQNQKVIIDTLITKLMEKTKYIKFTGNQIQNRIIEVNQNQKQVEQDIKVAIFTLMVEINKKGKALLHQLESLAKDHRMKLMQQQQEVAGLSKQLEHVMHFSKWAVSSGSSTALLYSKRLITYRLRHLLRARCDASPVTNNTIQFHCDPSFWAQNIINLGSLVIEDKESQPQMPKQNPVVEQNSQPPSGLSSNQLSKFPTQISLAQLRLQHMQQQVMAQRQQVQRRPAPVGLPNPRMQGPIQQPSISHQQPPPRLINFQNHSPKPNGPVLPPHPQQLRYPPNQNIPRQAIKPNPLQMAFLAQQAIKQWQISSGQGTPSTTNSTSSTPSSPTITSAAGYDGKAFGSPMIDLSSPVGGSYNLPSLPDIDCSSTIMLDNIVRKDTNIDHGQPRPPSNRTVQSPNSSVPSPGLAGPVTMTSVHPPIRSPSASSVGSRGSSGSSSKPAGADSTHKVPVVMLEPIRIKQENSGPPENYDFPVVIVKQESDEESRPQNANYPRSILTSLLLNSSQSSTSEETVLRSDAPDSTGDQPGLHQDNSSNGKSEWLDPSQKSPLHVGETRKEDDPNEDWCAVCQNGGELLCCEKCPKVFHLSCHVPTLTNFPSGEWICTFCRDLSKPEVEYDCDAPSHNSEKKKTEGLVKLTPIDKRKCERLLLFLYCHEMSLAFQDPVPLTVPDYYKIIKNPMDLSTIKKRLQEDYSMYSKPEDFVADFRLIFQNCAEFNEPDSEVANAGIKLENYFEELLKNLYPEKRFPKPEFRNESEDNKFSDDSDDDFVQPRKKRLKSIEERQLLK
reported_endpoint: IC50 (µM)

Solved entries (count: 3):
- Cn1c(=O)n(C)c2cc(NS(=O)(=O)c3ccc4c(c3)CCC(C)(C)O4)ccc21: 3.69
- Cc1ccc(S(=O)(=O)Nc2cc3c(cc2Oc2ccccc2)n(C)c(=O)n3C)cc1: 1.27
- COc1ccc(Oc2cc3c(cc2NS(=O)(=O)c2ccccc2C)n(C)c(=O)n3C)cc1: 1.47

P: Cn1c(=O)n(C)c2cc(Oc3ccccc3)c(NS(=O)(=O)c3ccc(Cl)cc3)cc21
Q: Cc1ccc(S(=O)(=O)Nc2cc3c(cc2Oc2ccccc2)n(C)c(=O)n3C)cc1F
R: Cn1c(=O)n(C)c2cc(NS(=O)(=O)c3ccc4c(c3)CCCO4)ccc21
Query: Sort the compounds on IC50; start with the lowest figure. Submit the labels in the order that the ranking request calls for.
Result: P, Q, R
(P: 1.56 µM, Q: 2.7 µM, R: 4.63 µM)
